# ASSAY DETAILS: growth inhibitors of tim10-1 mutant yeast, primary screen, luminescence, uHTS (AID 463190);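 note: mutant grown at 25 °C; 0% = DMSO wells with yeast and 100% = wells holding no yeast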
# TEST CONTEXT: S. cerevisiae tim10-1 ts strain growth, BacTiter-Glo, 24 h; at 20 µM; stronger effect = higher value
About 7,300 (2.2%) of roughly 330,000 compounds were called active. The full list was thinned out, with actives kept by preference.

| COMPOUND | inhibition, % |
| --- | --- |
| C=CCC1(CC=C)CCCN1C(=O)CC1C(=O)NCCN1Cc1ccccc1OC (configuration not stated) | 7.02 |
| O=C(c1cccc(C(=O)N2CCN(c3ccc(F)cc3)CC2)c1)N1CCN(c2ccc(F)cc2)CC1 | 40.1 |
| COc1ccccc1CSc1ncc(-c2ccc([N+](=O)[O-])cc2)[nH]1 | 44.7 |
| Cc1cc(NCc2ccco2)n2c(nc3ccccc32)c1C#N | 7.48 |
| COc1ccccc1NC(=O)C1=C(C)Nc2nnnn2C1c1cccc(Br)c1 (configuration not stated) | 42.4 |
| COc1cc(C(=O)OCc2cc(=O)n3ccsc3n2)ccc1OC(C)C | -4.26 |
| COc1ccc(N2C(=O)CC(SC(C)C)C2=O)cc1 (configuration not stated) | -8.61 |
| CCC(C)(C)n1nnnc1CN1CCN(c2nc3ccc(C)cc3cc2C#N)CC1 | 40.7 |
| CCOc1ccc(NC(=O)c2ccc(NC(=O)CN3C(=O)C(=O)N(CC(C)C)C3=O)cc2)cc1 | 2.57 |
| COc1cc(C=O)ccc1Oc1nnnn1-c1ccccc1 | 22.8 |
| CC(=O)c1cc(CN2CCC(n3nccc3NC(=O)c3ccccc3Cl)CC2)cs1 | -3.89 |
| Cc1ccc2nc(NCCCNC(=O)c3cnccn3)c(C#N)cc2c1 | 8.4 |
| COC(=O)N/N=C/c1ccc(/C=N/NC(=O)OC)cc1 | 7.21 |
| Cc1cnc(CN(C)C(=O)CC2C(=O)NCCN2Cc2cccc(F)c2F)[nH]1 (configuration not stated) | 0.623 |
| CCOC(=O)c1cn(CC)c2cc(F)c(F)cc2c1=O | -8.23 |
| CN1CCN(C(=O)CCc2ncc(C(F)(F)F)cc2Cl)CC1 | -4.04 |
| CC(=O)NS(=O)(=O)c1ccc2c(c1)Cc1cc(S(=O)(=O)NC(C)=O)ccc1-2 | -1.53 |
